Ref: the NIST ThermoML archive (doi:10.1016/j.fluid.2016.02.009)

Exercise: state measured mass density for each of the molecules provided.
# condition: 323.15 K; 65000 kPa; Liquid; Vibrating tube method
Numbers after ± are expanded uncertainties.

Below, 7 molecules whose answers are already recorded.
{"columns": ["molecule", "mass density"],
 "data": [
  ["CCCCOC [butyl methyl ether]", "775.54 ± 0.8 kg/m3"],
  ["CCCOCCC [dipropyl ether]", "777.21 ± 0.8 kg/m3"],
  ["CCOC(C)(C)C [2-ethoxy-2-methylpropane]", "773.58 ± 0.81 kg/m3"],
  ["CC(C)OC(C)C [diisopropyl ether]", "759.26 ± 0.84 kg/m3"],
  ["CCCCCOCCCCC [dipentyl ether]", "805.77 ± 0.72 kg/m3"],
  ["COC(C)(C)C [2-methoxy-2-methylpropane]", "773.22 ± 0.81 kg/m3"],
  ["CC(C)CCOCCC(C)C [di-(3-methylbutyl) ether]", "799.86 ± 0.74 kg/m3"]
]}

// switching to the query molecule
For record CCCCOCC [butyl ethyl ether] the listed mass density is 778.87 ± 0.79 kg/m3

###

# condition: 333.15 K; 35000 kPa; Liquid; Vibrating tube method
Exercise: state measured mass density for each of the compounds provided.
Give bare numbers, in kg/m3.

Below, 3 compounds whose answers are already recorded.
{"columns": ["compound", "unit string", "mass density"],
 "data": [
  ["CCCCCOCCCCC [dipentyl ether]", "kg/m3", 780.35],
  ["CCCOCCC [dipropyl ether]", "kg/m3", 746.89],
  ["CCOC(C)(C)C [2-ethoxy-2-methylpropane]", "kg/m3", 741.54]
]}

Could I get mass density for every one of these entries?
1. CCCCOC [butyl methyl ether]
2. CCCCOCC [butyl ethyl ether]
3. CC(C)CCOCCC(C)C [di-(3-methylbutyl) ether]
4. CC(C)OC(C)C [diisopropyl ether]

**A:**
744.31
748.71
773.7
726.36

###

# condition: 333.15 K; 100 kPa; Liquid; Vibrating tube method
quantity: mass density (kg/m3)
Numbers only, in kg/m3.

Below, 6 compounds whose answers are already recorded.
{"columns": ["chemical string", "quantity", "unit string", "value measured"],
 "data": [
  ["CC(C)CCOCCC(C)C", "mass density", "kg/m3", 741.88],
  ["CCCCOC", "mass density", "kg/m3", 704.04],
  ["CCCCCOCCCCC", "mass density", "kg/m3", 750.51],
  ["CC(C)OC(C)C", "mass density", "kg/m3", 681],
  ["CCCOCCC", "mass density", "kg/m3", 707.45],
  ["CCCCOCC", "mass density", "kg/m3", 710.26]
]}

// switching to the query compound
For record CCOC(C)(C)C the listed mass density is 698.45

###

# condition: 298.15 K; 15000 kPa; Liquid; Vibrating tube method
Exercise: state measured mass density for each of the compounds provided.
Answers are plain numbers, in kg/m3.

{"columns": ["compound", "mass density (kg/m3)"],
 "data": [
  ["CCCCOC [butyl methyl ether]", 756.15]
]}

Could I get mass density for every one of these entries?
1. CCCOCCC [dipropyl ether]
2. CC(C)OC(C)C [diisopropyl ether]
3. CC(C)CCOCCC(C)C [di-(3-methylbutyl) ether]
4. CCOC(C)(C)C [2-ethoxy-2-methylpropane]
5. COC(C)(C)C [2-methoxy-2-methylpropane]
6. CCCCOCC [butyl ethyl ether]
7. CCCCCOCCCCC [dipentyl ether]

**A:**
1: 758.15; 2: 736.05; 3: 783.18; 4: 752.27; 5: 752.04; 6: 760.05; 7: 790.73
